Tested on: TK6 cells
Test: Cytotoxicity analysis (Guava ViaCount, cell viability)
Type: cell-based, human
Conditions: Guava ViaCount assay, 26 h
PARAMETER: concentration up to which no cytotoxicity and cytostasis was induced

MOLECULE	MEASUREMENT
COc1cc(CCN)c(OC)cc1Br [2C-B, 2,5-dimethoxy-4-bromophenethylamine]	up to 35 µM
COc1cc(CCN)c(OC)cc1I [2C-I, 2,5-Dimethoxy-4-iodophenethylamine]	up to 35 µM
COc1ccc(OC)c(CCN)c1 [2C-H, 2,5-dimethoxyphenethylamine]	up to 35 µM

###

Test system: TK6 cells
Assay: Cytostasis analysis (Relative Population Doubling, Guava ViaCount)
Assay type: cell-based, human
Details: 75 µM, 26 h treatment, vs untreated control C (-) = 100%, mean ± SEM
Description: In addition, to make the genotoxicity test reliable, it is necessary to check the cellular proliferation in order to verify that a sufficient number of cells has undergone mitosis and so transmitted the genetic damage suffered to the daughter cells. For this purpose, the OECD recommends the measurement of the Relative Population Doubling (RPD) to estimate the cytostasis and, analogously to the cytotoxicity, establishes a threshold at most equal to 55 ± 5% [45]. […]
PARAMETER: Relative Population Doubling (RPD)

Hello, I would appreciate it if you could give Relative Population Doubling (RPD) for each entry below.
1. COc1cc(CCN)c(OC)cc1I
2. CNC(C)Cc1ccc2c(c1)OCO2 (stereo not drawn) [MDMA, 3,4-methylenedioxy-methamphetamine, reference compound]
3. COc1ccc(OC)c(CCN)c1

30.8% ± 1.0
91.9% ± 1.3
13.0% ± 1.5
